# pIC50 annotations
biological target: EGFR L858R (Homo sapiens (Human), UniProt P00533, L858R); experiment: Biochemical EGFR inhibition assay, EGFR L858R; settings: Caliper mobility shift; 1.0 mM ATP or ATP Km; read-out: Enz EGFR_L858R IC50
Sequence (P00533 25-1210 L858R): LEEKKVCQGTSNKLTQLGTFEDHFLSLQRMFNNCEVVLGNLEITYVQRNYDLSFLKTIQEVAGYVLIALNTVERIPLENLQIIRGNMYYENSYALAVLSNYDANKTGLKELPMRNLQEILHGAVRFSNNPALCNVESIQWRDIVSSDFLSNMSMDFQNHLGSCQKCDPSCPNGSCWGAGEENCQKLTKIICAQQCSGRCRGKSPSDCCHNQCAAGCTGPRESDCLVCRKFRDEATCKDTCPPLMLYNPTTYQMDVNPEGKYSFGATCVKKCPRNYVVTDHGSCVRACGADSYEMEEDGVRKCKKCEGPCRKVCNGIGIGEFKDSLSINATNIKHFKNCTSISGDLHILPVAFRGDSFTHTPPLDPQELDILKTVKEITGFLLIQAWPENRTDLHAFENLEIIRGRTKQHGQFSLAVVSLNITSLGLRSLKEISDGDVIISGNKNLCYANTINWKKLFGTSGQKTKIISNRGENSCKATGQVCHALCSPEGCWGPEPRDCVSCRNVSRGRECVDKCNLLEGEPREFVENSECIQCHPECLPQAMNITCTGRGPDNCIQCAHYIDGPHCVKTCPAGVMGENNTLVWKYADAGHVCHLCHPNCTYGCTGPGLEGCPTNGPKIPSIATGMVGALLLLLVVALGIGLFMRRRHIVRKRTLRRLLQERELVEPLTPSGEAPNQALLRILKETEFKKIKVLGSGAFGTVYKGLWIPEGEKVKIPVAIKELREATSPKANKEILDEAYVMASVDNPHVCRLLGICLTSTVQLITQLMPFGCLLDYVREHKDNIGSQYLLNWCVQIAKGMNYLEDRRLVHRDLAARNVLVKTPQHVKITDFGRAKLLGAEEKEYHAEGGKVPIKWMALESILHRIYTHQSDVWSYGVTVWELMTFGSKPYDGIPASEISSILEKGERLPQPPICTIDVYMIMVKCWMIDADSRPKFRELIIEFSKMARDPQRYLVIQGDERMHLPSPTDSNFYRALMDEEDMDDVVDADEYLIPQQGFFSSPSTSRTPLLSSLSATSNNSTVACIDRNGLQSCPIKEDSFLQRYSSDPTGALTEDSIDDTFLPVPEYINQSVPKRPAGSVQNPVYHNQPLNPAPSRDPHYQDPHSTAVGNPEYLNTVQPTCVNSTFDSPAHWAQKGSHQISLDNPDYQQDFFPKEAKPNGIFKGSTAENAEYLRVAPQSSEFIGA
// pIC50 is dimensionless: -log10 of concentration (M)

Field: example entries. Status: answers known.
INSERT INTO measurements (smiles_entry, assayed_target, value) VALUES
  ('COc1cc2ncnc(-c3cn(C)nc3-c3ccccc3)c2cc1NC(=O)N1C[C@@H](C)OC[C@@H]1C', 'EGFR L858R (Homo sapiens (Human), UniProt P00533, L858R)', 8.10),
  ('COc1cc2ncnc(-c3cn(C)nc3-c3ccccc3)c2cc1NC(=O)c1cnc(C)c(F)c1', 'EGFR L858R (Homo sapiens (Human), UniProt P00533, L858R)', 8.77);

Quick one: pIC50 of "[2H]C([2H])([2H])n1ncc(-c2ncnc3cc(OC)c(NC(=O)C45CC(N(C)C)(C4)C5)nc23)c1-c1ccccc1" ?
7.03

Quick one: pIC50 of "COc1cc2ncnc(-c3cn(C)nc3-c3ccccc3)c2cc1NC(=O)c1cnn(C(C)C)c1" ?
8.96

Quick one: pIC50 of "CCOc1cc2ncnc(-c3cn(C)nc3-c3ccccc3)c2cc1NC(=O)[C@]12COC[C@H]1C2" ?
8.80

Quick one: pIC50 of "CCn1cc(-c2ncnc3cc(OC)c(OC(=O)N4CCN(C)C[C@@H]4C)cc23)c(-c2ccccc2)n1" ?
8.52
